pIC50: −log10 of the molar value.
Endpoint: pIC50. System: Prothrombin (Homo sapiens). Items follow.
MEASUREMENT KIND: pIC50

>>> observed_result("N=C(N)c1ccc(CNC(=O)[C@@H]2CCNN2C(=O)[C@@H](CC2CCCCC2)NCC(=O)O)cn1")
8.47
>>> observed_result("N=C(N)c1ccc(CNC(=O)[C@@H]2CC=NN2C(=O)[C@@H](CC2CCCCC2)NCC(=O)O)cn1")
8.77
>>> observed_result("C[C@@H](NC(=O)[C@@H](CC1CCCCC1)NCC(=O)O)C(=O)NCc1ccc(C(=N)N)nc1")
4.27
>>> observed_result("N=C(N)c1ccc(CNC(=O)[C@@H]2CCCN2C(=O)[C@@H](CC2CCCCC2)NCC(=O)O)cc1")
8.57
>>> observed_result("N=C(N)c1ccc(CNC(=O)[C@@H]2CC=CCN2C(=O)[C@@H](CC2CCCCC2)NCC(=O)O)cn1")
7.15
>>> observed_result("C[C@H](NC(=O)[C@@H](CC1CCCCC1)NCC(=O)O)C(=O)NCc1ccc(C(=N)N)nc1")
7.11
>>> observed_result("CC(C)(NC(=O)[C@@H](CC1CCCCC1)NCC(=O)O)C(=O)NCc1ccc(C(=N)N)nc1")
6.24
>>> observed_result("N=C(N)c1ccc(CNC(=O)[C@@H]2CCCN2C(=O)[C@@H](CC2CCCCC2)NCC(=O)O)cn1")
8.49

====

- System: Rattus norvegicus
- EXPERIMENT SUMMARY: Antithrombin activity in rat at 1 mg/kg, iv after 60 mins measured as ecarin clotting time prolongation
- Type: functional
MEASUREMENT KIND: Time (s)

>>> observed_result("CC1(C)C[C@@H](C(=O)NCc2ccc(C(=N)N)nc2)N(C(=O)[C@@H](CC2CCCCC2)NCC(=O)O)C1")
37
>>> observed_result("N=C(N)c1ccc(CNC(=O)[C@@H]2COCN2C(=O)[C@@H](CC2CCCCC2)NCC(=O)O)cn1")
64
>>> observed_result("C[C@@H](C(=O)NCc1ccc(C(=N)N)nc1)N(C)C(=O)[C@@H](CC1CCCCC1)NCC(=O)O")
75
